- method: Solubility in RPMI media+10% FBS
- Assay type: physicochemical
- conditions: RPMI media with 10% FBS, read-out: soluble concentration
Starred links: 1 amine or outer side, 2 acyl side, 3 side chain; linkers in the order of their positions; H or OH if unused. Positions of bridges follow the written chain, without caps; N, C: chain ends. Non-standard residues stand in square brackets, D forms with d. Chains are numbered I, II in the order given. X1 = O=C1CC([*:2])C(=O)N1CC(=O)[*:1]; S5 = C=CCCC[C@](C)(N)C(=O)O; Aib = CC(C)(N)C(=O)O
The entries below are paired with their reported solubility.

I: Ac-PRFQSA[S5]DKR[S5]HHNALERKRRDHIKDSFHKLRDSVP-NH2 / II: Ac-SR[Aib]QILCQATEYIQSLRR[S5]IHT[S5]E-NH2 (staple I:7-I:11, II:19-II:23; linker I:30-II:7 via X1) [B11-Z70] = > 75 µM

Next item in the queue.
solubility reported for this substance I: Ac-PRFQSA[S5]DKR[S5]HHNALERKRRDHIKDSFHKLRDSVP-NH2 / II: Ac-SRAQILCKATEYIQRLR[S5]KIR[S5]LE-NH2 (staple I:7-I:11, II:18-II:22; linker I:30-II:7 via X1) [B11-Z80] : > 75 µM
